measured target: recombinant human ALK5 (TGF-βR1) protein (Homo sapiens, UniProt P36897)
Construct: purchased Life Technologies PR9075A
Sequence (P36897 34-503): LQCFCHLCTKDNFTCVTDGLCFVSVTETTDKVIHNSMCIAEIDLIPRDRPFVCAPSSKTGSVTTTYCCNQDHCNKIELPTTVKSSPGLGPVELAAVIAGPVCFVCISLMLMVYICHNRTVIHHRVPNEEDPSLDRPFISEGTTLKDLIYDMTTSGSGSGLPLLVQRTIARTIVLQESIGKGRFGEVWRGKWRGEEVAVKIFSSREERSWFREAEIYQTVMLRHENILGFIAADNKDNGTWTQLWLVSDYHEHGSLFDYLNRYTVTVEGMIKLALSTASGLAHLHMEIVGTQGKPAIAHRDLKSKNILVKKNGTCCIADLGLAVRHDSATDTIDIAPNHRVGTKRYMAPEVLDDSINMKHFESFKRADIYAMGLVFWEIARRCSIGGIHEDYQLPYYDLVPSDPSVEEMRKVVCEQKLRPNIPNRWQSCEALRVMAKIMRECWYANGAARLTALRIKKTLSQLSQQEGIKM
protocol notes: Biochemical ALK5 (TGF-βR1) assay to measure pKi (LANCE Ultra ULight kinase assay)
experimental conditions: apparent pKi from pIC50 by Cheng-Prusoff, read-out: ALK5 pKi (converted)
Here, each record is paired with measured Ki data.
quantity: Ki

1) Cc1cccc(-c2[nH]cnc2-c2ccc3ncc(-c4csc(C(=O)O)c4)cc3c2)n1 [Compound 798] | 0.0398 to 0.316 nM
2) COC(=O)Cn1cc(-c2cnc3ccc(-c4c[nH]nc4-c4cccc(C)n4)nc3c2)cn1 [Compound 673] | 0.0398 to 0.316 nM
3) Cc1cccc(-c2[nH]cnc2-c2ccc3ncc(-c4cnc5c(c4)CNCC5)cc3c2)n1 [Compound 77] | 0.0398 to 0.316 nM
4) Cc1cccc(-c2nc[nH]c2-c2ccc3ncc(-c4cnn([C@@H]5CCCC[C@H]5N)c4)cc3c2)n1 [Compound 448] | < 0.0316 nM
5) Cc1cccc(-c2[nH]cnc2-c2ccc3nccc(C4CCCN4)c3c2)n1 (centres unmarked) [Compound 154] | 3.98 to 31.6 nM
6) Cc1nc(-c2nc3ccccn3c2-c2ccc3ncc(-c4cn5c(n4)CNCC5)cc3n2)ccc1F [Compound 555] | 0.0398 to 0.316 nM
7) Cc1cccc(-c2nc3ccccn3c2-c2ccc3ncc(NCCN4CCN(C(C)C)CC4)cc3c2)n1 [Compound 293] | 0.0398 to 0.316 nM
8) CNCCn1ccc(-c2cnc3ccc(-c4nc[nH]c4-c4cccc(C)n4)cc3c2)n1 [Compound 494] | 0.0398 to 0.316 nM

====

measured target: recombinant human ALK5 (TGF-βR1) protein (Homo sapiens)
Construct: purchased Life Technologies PR9075A
protocol notes: Biochemical ALK5 (TGF-βR1) assay to measure pKi (LANCE Ultra ULight kinase assay)
experimental conditions: apparent pKi from pIC50 by Cheng-Prusoff, read-out: ALK5 pKi (converted)
Here, each record is paired with measured Ki data.
quantity: Ki

1. Cc1cccc(-c2n[nH]cc2-c2ccc3nccc(C(=O)OCCCN4CCOCC4)c3n2)n1 | 0.398 to 3.16 nM
2. Cc1cccc(-c2n[nH]cc2-c2ccc3nccc(NC(=O)CCCN4CCOCC4)c3n2)n1 | 0.398 to 3.16 nM
3. Cc1cccc(-c2[nH]cnc2-c2ccc3ncc(Nc4nc5n(n4)CCN(C(C)C)C5)cc3c2)n1 | 0.0398 to 0.316 nM
4. Cc1cccc(-c2n[nH]cc2-c2ccc3nccc(CNCCN4CCN(C(C)C)CC4)c3n2)n1 | 0.0398 to 0.316 nM
5. Cc1cccc(-c2[nH]cnc2-c2ccc3ncc(NCCN4CCN(C(C)C)CC4)cc3n2)n1 | 0.0398 to 0.316 nM
6. Cc1nc(-c2n[nH]cc2-c2ccc3ncc(-c4cnn(C5CCCNC5)c4)cc3c2)ccc1F (stereo not shown) | < 0.0316 nM
7. Cc1cccc(-c2[nH]cnc2-c2ccc3ncc(C4=CCC(NCC5CCOC5=O)CC4)cc3c2)n1 (stereo not shown) | < 0.0316 nM
8. CNCCn1cc(-c2cnc3ccc(-c4c[nH]nc4-c4cccc(C)n4)nc3c2)nn1 | < 0.0316 nM
9. COCC1CN(c2cnc3ccc(-c4c[nH]nc4-c4cccc(C)n4)nc3c2)CCN1C (racemic) | < 0.0316 nM
10. Cc1cccc(-c2[nH]ncc2-c2ccc3ncc(C(=O)OCCN4CCNCC4)cc3n2)n1 | 0.0398 to 0.316 nM
11. COc1[nH]nc(-c2cccc(C)n2)c1-c1ccc2ncc(NCCN3CCN(C(C)C)CC3)cc2n1 | 0.0398 to 0.316 nM
12. CC(C)N1CCN(CCNc2cnc3ccc(-c4c[nH]nc4-c4cccc(C(F)(F)F)n4)nc3c2)CC1 | 0.0398 to 0.316 nM
13. CNC1CCN(c2cnc3ccc(-c4c(-c5cccc(C)n5)[nH]c5cccnc45)nc3c2)CC1 | 0.398 to 3.16 nM
14. Cc1cccc(-c2n[nH]cc2-c2ccc3ncc(N4CCCN(C5CCCC5)CC4)cc3n2)n1 | 0.0398 to 0.316 nM
15. Cc1cccc(-c2[nH]cnc2-c2ccc3ncc(NCCN4CCCC4)cc3c2)n1 | 0.0398 to 0.316 nM
16. Cc1nc(-c2n[nH]cc2-c2ccc3ncc(-c4nc5n(n4)CCNC5)cc3n2)ccc1F | 0.0398 to 0.316 nM
